All values here come from ChEMBL document CHEMBL1667791.

Molecular target: Mu-type opioid receptor (Homo sapiens)
Test: Antagonist activity at human mu opioid receptor expressed in CHO cells assessed as inhibition of DAMGO-induced [35S]GTPgammaS binding
Assay type: functional, cell-based
PARAMETER: pIC50
The read-out pIC50 is expressed as -log10 of concentration in moles per litre.

Looking for the measured pIC50 of Cc1cc(O)cc(C)c1C[C@@H](C(=O)N1Cc2ccccc2C[C@H]1C(=O)OC1=C2O[C@H]3[C@@H](O)C=C[C@H]4[C@H]5CC(C=C1)C2[C@]43CCN5C)N(C)C (stereo partly specified) , can you help?
7.89

###

Molecular target: Mu-type opioid receptor (Homo sapiens, UniProt P35372)
Sequence (P35372 whole entry): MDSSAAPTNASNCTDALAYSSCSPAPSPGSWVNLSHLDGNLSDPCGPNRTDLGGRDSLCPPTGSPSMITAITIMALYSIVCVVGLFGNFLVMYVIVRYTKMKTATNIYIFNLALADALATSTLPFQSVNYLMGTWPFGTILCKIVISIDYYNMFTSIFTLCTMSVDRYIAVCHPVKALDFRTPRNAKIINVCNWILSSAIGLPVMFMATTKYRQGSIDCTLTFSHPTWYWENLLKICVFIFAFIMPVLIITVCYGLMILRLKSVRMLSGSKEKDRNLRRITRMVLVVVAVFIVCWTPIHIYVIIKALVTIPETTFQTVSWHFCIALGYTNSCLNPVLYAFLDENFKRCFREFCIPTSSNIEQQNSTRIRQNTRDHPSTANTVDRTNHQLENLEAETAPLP
PARAMETER: pKi
The read-out pKi is expressed as -log10 of concentration in moles per litre.

Looking for the measured pKi of Cc1cc(O)cc(C)c1C[C@@H](C(=O)N1Cc2ccccc2C[C@H]1C(=O)OC1=C2O[C@H]3[C@@H](O)C=C[C@H]4[C@H]5CC(C=C1)C2[C@]43CCN5C)N(C)C (stereo partly specified) , can you help?
8.96
